# TEST_PROTOCOL: in vivo
# COND: both, cynomolgus monkey, plasma, sc, 0.05 mg/kg
READOUT_NAME: Tmax
The reply should read as a number followed by its unit.

In plain terms, CC(C)C[C@H](NC(=O)[C@H](Cc1ccccc1)NC(=O)c1cnccn1)B(O)O has a documented Tmax of 12 min

====

# TEST_PROTOCOL: in vivo
# COND: both, cynomolgus monkey, plasma, sc, 0.166 mg/kg
READOUT_NAME: Cmax (ng/mL)
// units = ng/mL; emit number, no label

Cmax for CC(C)C[C@H](NC(=O)[C@H](Cc1ccccc1)NC(=O)c1cnccn1)B(O)O [bortezomib] is 144

====

# TEST_PROTOCOL: Toxicological screening, bi-weekly/weekly subcutaneous dosing (TOX7345)
# COND: both, cynomolgus monkey, in vivo
READOUT_NAME: MTD at 4 cycles

Lab note: measured MTD at 4 cycles of CC(C)C[C@H](NC(=O)[C@H](Cc1ccccc1)NC(=O)c1cnccn1)B(O)O was ~0.1 mg/kg

====

# TEST_PROTOCOL: in vivo
# COND: both, cynomolgus monkey, plasma, sc, 0.0166 mg/kg
READOUT_NAME: Tmax
Please don't drop the unit; write it after the number.

response.value for CC(C)C[C@H](NC(=O)[C@H](Cc1ccccc1)NC(=O)c1cnccn1)B(O)O (field: Tmax) = 8.88 min

====

# TEST_PROTOCOL: in vivo
# COND: both, cynomolgus monkey, plasma, sc, 0.1 mg/kg
READOUT_NAME: Tmax (min)
Number only, in min; omit the unit.

Lab note: measured Tmax of CC(C)C[C@H](NC(=O)[C@H](Cc1ccccc1)NC(=O)c1cnccn1)B(O)O was 7.02

====

# TEST_PROTOCOL: in vivo
# COND: both, cynomolgus monkey, plasma, sc, 0.0333 mg/kg
READOUT_NAME: Tmax (min)
Numbers only here, please. The scale is min.

Measured Tmax of CC(C)C[C@H](NC(=O)[C@H](Cc1ccccc1)NC(=O)c1cnccn1)B(O)O : 6.96

====

# TEST_PROTOCOL: in vivo
# COND: both, cynomolgus monkey, plasma, sc, 0.166 mg/kg
READOUT_NAME: Tmax (min)
Entry rule: numbers only, all in min.

Short answer for CC(C)C[C@H](NC(=O)[C@H](Cc1ccccc1)NC(=O)c1cnccn1)B(O)O [bortezomib] : Tmax was 7.02

====

# TEST_PROTOCOL: in vivo
# COND: both, Cynomolgus, cynomolgus monkey, plasma, sc, 0.166 mg/kg
READOUT_NAME: Cmax
Mention the unit after the number when you answer.

// Cmax value for CC(C)C[C@H](NC(=O)[C@H](Cc1ccccc1)NC(=O)c1cnccn1)B(O)O [bortezomib] : 158 ng/mL

====

# TEST_PROTOCOL: in vivo
# COND: both, Cynomolgus, cynomolgus monkey, plasma, sc, 0.166 mg/kg
READOUT_NAME: AUC(0-t) (ng·h/mL)
A number alone suffices; assume ng·h/mL.

For record CC(C)C[C@H](NC(=O)[C@H](Cc1ccccc1)NC(=O)c1cnccn1)B(O)O the listed AUC(0-t) is 229

====

# TEST_PROTOCOL: in vivo
# COND: both, cynomolgus monkey, in vivo
READOUT_NAME: MTD at 8 weeks

# compound CC(C)C[C@H](NC(=O)[C@H](Cc1ccccc1)NC(=O)c1cnccn1)B(O)O ; its MTD at 8 weeks = ~0.05 mg/kg
